- tested.on: acyl-CoA: cholesterol acyltransferase (ACAT) (Oryctolagus cuniculus)
- Sequence (G1SFD9 1-524): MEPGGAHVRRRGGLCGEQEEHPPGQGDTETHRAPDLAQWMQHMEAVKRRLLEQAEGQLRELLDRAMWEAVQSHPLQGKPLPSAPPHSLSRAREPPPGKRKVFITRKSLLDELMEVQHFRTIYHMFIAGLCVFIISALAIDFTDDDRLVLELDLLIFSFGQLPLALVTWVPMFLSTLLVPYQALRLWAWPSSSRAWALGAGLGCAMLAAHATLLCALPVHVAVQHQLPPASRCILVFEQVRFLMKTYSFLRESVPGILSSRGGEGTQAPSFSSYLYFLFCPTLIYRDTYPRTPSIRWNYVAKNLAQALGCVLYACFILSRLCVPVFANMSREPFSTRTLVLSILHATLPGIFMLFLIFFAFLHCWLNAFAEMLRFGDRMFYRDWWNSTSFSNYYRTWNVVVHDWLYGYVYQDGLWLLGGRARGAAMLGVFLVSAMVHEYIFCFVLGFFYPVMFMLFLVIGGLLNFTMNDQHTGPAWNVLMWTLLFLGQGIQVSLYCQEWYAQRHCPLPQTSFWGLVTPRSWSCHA
Counter-ions that a name gives are not always drawn.
property.measured: IC50 (nM)

| compound | IC50, nM |
| --- | --- |
| CCCCCCCC1CCC(C(=O)Nc2c(C(C)C)cccc2C(C)C)C(=O)O1 (stereo not shown) | 336 |

[A] CC(C)c1cccc(C(C)C)c1NC(=O)C(CC(O)c1ccc(F)cc1)C(=O)O (stereo not shown) [Example 7, monosodium salt]
[B] CCCCCCCC1CC(C(=O)Nc2c(C(C)C)cccc2C(C)C)C(=O)O1 (stereo not shown)
[C] CC(C)c1cccc(C(C)C)c1NC(=O)C1CC(c2ccc(F)cc2)OC1=O (stereo not shown)
query: Given 3 compounds, produce a descending ranking by IC50. Enter labels, ranked according to the request.
result: A, C, B
(A: 1330 nM, C: 587 nM, B: 260 nM)

The measurements presented in this section are drawn from patent US5185349A.
